target: Mitogen-activated protein kinase kinase kinase 9 (Homo sapiens); conditions: at 1 µM
Here the recorded residual activity is given for each entry.
Lab book: enter the figure in %, no units written.

Recorded residual activity, per entry:
CCOc1cc2ncnc(Nc3cccc(Br)c3)c2cc1OCC : 72
Cc1cncc2cccc(S(=O)(=O)N3CCCN(C(=O)CN)C[C@H]3C)c12 : 86
O=C1c2ccccc2-[n+]2ccc3c([nH]c4ccccc43)c21 : 91
NC(=O)c1ccc2[nH]c(-c3ccc(Oc4ccc(Cl)cc4)cc3)nc2c1 : 89
Ic1cccc(CSc2nnc(-c3ccncc3)o2)c1 : 90

Problem: # get_value(readout='residual activity', item= COc1cc2ncc(-c3ccccc3)nc2cc1OC )
Solution: 94

Problem: # input molecule: CC(C)n1cnc2/c(=N/c3cccc(Cl)c3)nc(NCCO)[nH]c21 ; wanted: its residual activity
Solution: 11

Problem: For CC(=O)O/N=C1\C(=C2\C(=O)Nc3cc(Br)ccc32)Nc2ccccc21 , what is its reported residual activity?
Solution: 55

Problem: Using the record for CO[C@H]1[C@@H](OC)C[C@H](C)[C@@H](OC)C2=CC(=O)C=C(NC(=O)/C(C)=C/C=C/[C@H](OC)[C@@H](OC(N)=O)/C(C)=C/[C@@H]1C)C2=O , report its residual activity.
Solution: 92

Problem: I'd like to know its residual activity. The molecule in question is CCC(=O)Nc1ccc2ncnc(Nc3cccc(Br)c3)c2c1
Solution: 89

Problem: State the recorded residual activity for this entry: CC(=O)c1ccc(N2CCOCC2)cc1O
Solution: 89

Problem: Which residual activity reading was recorded for the molecule Cn1nc2c3c(cccc31)C(=O)c1ccccc1-2 ?
Solution: 74

Problem: Field request: residual activity | item: c1ccc2c(-c3ccncc3)c[nH]c2c1
Solution: 74

Problem: Returns the measured residual activity for the input molecule. Input: Oc1ccc(Nc2nc(-c3ccc(Cl)cc3)cs2)cc1
Solution: 92

Problem: Any idea what residual activity was measured for O=C1NC(=O)c2cc(Nc3ccc(F)cc3)c(Nc3ccc(F)cc3)cc21 ?
Solution: 86

Problem: // lookup residual activity for CC(C)n1cnc2c(NCc3ccccc3)nc(NCCCO)nc21
Solution: 97

Problem: Which value of residual activity has been reported for CNc1cc2c(Nc3cccc(Br)c3)ncnc2cn1 in the records?
Solution: 68

Problem: What residual activity value was documented for this molecule, COc1cccc(-c2cc(=O)c3ccccc3o2)c1N ?
Solution: 111

Problem: Look at this molecule and give its reported residual activity. O=c1cc(-c2cccc3c2Sc2ccccc2S3)oc(N2CCOCC2)c1
Solution: 103

Problem: Bench note: what residual activity did CC[n+]1c(/C=C/N(C)c2ccccc2)n(-c2ccccc2)c2ccc(-c3nc4ccccc4s3)cc21 show?
Solution: 105

Problem: What value of residual activity has been reported for the following molecule? c1ccc(-c2n[nH]c3c2oc2ccccc23)cc1
Solution: 69

Problem: Name the reported residual activity value associated with the molecule Cc1nc(-c2ccccc2)c(-c2ccncc2)o1
Solution: 106

Problem: Form field: reported residual activity of O=C1NC(=O)c2c1c1c3ccccc3[nH]c1c1[nH]c3cc(Br)ccc3c21
Solution: 85

The origin of these recorded values is ChEMBL document CHEMBL2218924.
